target: T1, human CD3 (human, UniProt P07766 23-207; P09693 23-182; P04234 22-171); assay: flow competition on Jurkat, 100 nM unlabeled mAb; competitor AF488-OKT-3 mIgG2b 1.5 nM
T1 construct: whole, on cells; also called CD3 on Jurkat T cells; CD3 on primary human T cells
Mark class 1 for % residual fluorescence of labeled mAb under 90%, class 0 if at or over.

The examples below pair each entry with its known result.
binder	classLabel
F332-8F7 (antibody, mouse IgG2a, V domains shown, also called F332-8F7-3) VH: QVQLQQPGAELGKPGTSVKLSCKASGYTFTSYWIHWVKQRPGQGLEWIGNINPNSGSTNYNEKFKNKATLTVDKSSSTASMQLSTLTSEDSAVYYCTRDISGQYYFDYWGQGTTLTVSS VL: DIVMSQSPSSLAVSTGGEVTMSCKSSQSLLNSRTRKNYLAWYQQKPGQSPKLLIYWASTRESGVPDRFTGSGSGTDFTLTISSVQAEDLAVYYCIQSYSLRTFGGGTKLGIK	class 1
F332-7B7 (antibody, mouse IgG2a, V domains shown, also called F332-7B7-2) VH: QVQLQQPGTELGKPGTSVKLSCKASGYTFTNYWMHWVKQRPGQGLEWIGNINPNSGSTNYNQKFKSKATLTLDKSSSTAYMQFSTLTSEDSAVYYCTRDSSGQYYFDYWGQGTTLTVSS VL: DIVMSQSPSSLAVSAGEKVTMSCKSSQSLLNSRTRKNYLAWYQQKPGQSPKLLIYWASTRESGVPDRFTGSGSGTDFTLTISSVQAEDLAVYYCIQSFHLRTFGGGTKLEIK	class 1

(Q) is_below(% residual fluorescence of labeled mAb, 90%) for F332-10B6 (antibody, mouse IgG2a, V domains shown, also called F332-10B6-2; F332-12B5-1) VH: QVQLQQPGAELGKPGTSVNLSCKASGYTFTDYWIHWVKQRPGQGLEWIGNINPNSGDTNYNENFKTKATLTVDRSSSTAYMQLSSLTSEDSAVYYCTRDISGQYYFDFWGQGTTLTVSS VL: DIVMSQSPSSLAVSAGEKVTMSCKSSQSLLNSRTRKNYLAWYQQKPGQSPKLLIYWASTRESGVPDRFTGSGSGTDFTLTISSVQAEDLAVYYCIQSYNLRTFGGGTKLEIK ?
(A) class 0

(Q) is_below(% residual fluorescence of labeled mAb, 90%) for F332-4D6 (antibody, mouse IgG2a, V domains shown, also called F332-4D6-2; F322-4D6) VH: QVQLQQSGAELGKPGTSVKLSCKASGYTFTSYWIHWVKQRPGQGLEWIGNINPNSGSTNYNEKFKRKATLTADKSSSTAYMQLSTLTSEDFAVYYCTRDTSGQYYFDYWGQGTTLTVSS VL: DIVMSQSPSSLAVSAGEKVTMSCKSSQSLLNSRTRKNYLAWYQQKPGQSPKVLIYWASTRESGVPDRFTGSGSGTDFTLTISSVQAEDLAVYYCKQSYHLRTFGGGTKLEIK ?
(A) class 1
